TESTED SYSTEM: panel of 255 wild-type kinases (Homo sapiens)
Sequence (P53779 whole entry): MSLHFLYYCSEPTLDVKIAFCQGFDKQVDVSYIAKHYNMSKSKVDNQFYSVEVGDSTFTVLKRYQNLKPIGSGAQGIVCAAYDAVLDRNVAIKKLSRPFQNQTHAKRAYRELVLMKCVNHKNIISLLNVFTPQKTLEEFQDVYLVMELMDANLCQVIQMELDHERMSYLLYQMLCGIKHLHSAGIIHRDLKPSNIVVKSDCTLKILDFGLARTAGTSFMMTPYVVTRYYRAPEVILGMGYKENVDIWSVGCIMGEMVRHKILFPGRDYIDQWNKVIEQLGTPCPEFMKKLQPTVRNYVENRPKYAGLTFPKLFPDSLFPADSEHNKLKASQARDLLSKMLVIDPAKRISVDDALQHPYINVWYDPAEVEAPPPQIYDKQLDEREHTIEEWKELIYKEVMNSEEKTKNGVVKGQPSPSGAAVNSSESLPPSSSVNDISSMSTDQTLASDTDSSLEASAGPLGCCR
TEST: Kinase panel profiling at 1 µmol/L (MSA or IMAP), percentage inhibition
Format: biochemical
PROTOCOL CONDITIONS: kinase JNK3; 1 µmol/L single concentration; read-out: %-inhibition at 1 µmol/L, JNK3
Reported inhibition at 1 µM values follow for various compounds

- ITEM SMILES: "FC(F)(F)c1ccc(CNc2ccc(Cc3c[nH]c4ncc(Cl)cc34)cn2)cn1"
  inhibition at 1 µM / %: 0.454
- ITEM SMILES: "CO[C@]1(C(=O)N[C@@H](C)c2ccc(-n3cc(F)cn3)nc2)CC[C@H](c2nc(C)cc(Nc3cc(C)[nH]n3)n2)CC1"
  inhibition at 1 µM / %: 6
- ITEM SMILES: "COc1cc2ncnc(Nc3ccc(F)c(Cl)c3)c2cc1NC(=O)/C=C/CN1CCCCC1"
  inhibition at 1 µM / %: 0.338
- ITEM SMILES: "Cn1cnc2c(F)c(Nc3ccc(Br)cc3Cl)c(C(=O)NOCCO)cc21"
  inhibition at 1 µM / %: 2.14
- ITEM SMILES: "Cc1cc(Nc2ncnc3ccc(NC4=NC(C)(C)CO4)cc23)ccc1Oc1ccn2ncnc2c1"
  inhibition at 1 µM / %: 1.13
- ITEM SMILES: "Cn1cnc2c(F)c(Nc3ccc(Br)cc3F)c(C(=O)NOCCO)cc21"
  inhibition at 1 µM / %: 7
- ITEM SMILES: "O=C(Nc1cnn2ccc(N3CCC[C@@H]3c3cc(F)ccc3F)nc12)N1CC[C@H](O)C1"
  inhibition at 1 µM / %: -7
- ITEM SMILES: "C[C@H](Nc1ncnc2nc[nH]c12)c1cc2cccc(Cl)c2c(=O)n1-c1ccccc1"
  inhibition at 1 µM / %: -10
